Every entry's value here was drawn from paper PMC12592319.

- protocol_notes: pKa measurement (SiriusT3, UV-metric/pH-metric titration)
- Assay type: physicochemical
- run_parameters: basic pKa; ionic strength 0.168 mol/L, 37°C; read-out: pKa (B)
value_kind: pKa
Would you mind answering with just the numeric figure?

Query: Please report pKa for the following molecule: CO[C@H]1/C=C/O[C@@]2(C)Oc3c(C)c(O)c4c(O)c(c5c(nc6cc(C)ccn65)c4c3C2=O)NC(=O)/C(C)=C\C=C\[C@H](C)[C@H](O)[C@@H](C)[C@@H](O)[C@@H](C)[C@H](OC(C)=O)[C@@H]1C
Response: 8.29

---

For each of the compounds below, state its JμFLUX.
- protocol_notes: μFLUX dissolution-permeation flux experiment
- run_parameters: donor FaSSIF; average of 90 to 120 min (pranlukast 210 to 240 min)

Query: Please report JμFLUX for the following compound: O=C(Nc1cccc2c(=O)cc(-c3nnn[nH]3)oc12)c1ccc(OCCCCc2ccccc2)cc1
Response: 0.20 ± 0.05 10–^3 μg/cm^2/s

Query: Please report JμFLUX for the following compound: CCc1c(Cl)c(O)c(Cl)c(O)c1C(=O)O[C@H]1[C@H](O)[C@H](OC)[C@H](OC/C2=C\C=C\C[C@H](O)/C(C)=C/[C@H](CC)[C@@H](O[C@@H]3OC(C)(C)[C@@H](OC(=O)C(C)C)[C@H](O)[C@@H]3O)/C(C)=C/C(C)=C/C[C@@H]([C@@H](C)O)OC2=O)O[C@@H]1C
Response: 7.4 ± 0.7 10–^3 μg/cm^2/s

Query: Please report JμFLUX for the following compound: COc1ccccc1Oc1c(NS(=O)(=O)c2ccc(C(C)(C)C)cc2)nc(-c2ncccn2)nc1OCCO
Response: 6.7 ± 0.8 10–^3 μg/cm^2/s

Query: Please report JμFLUX for the following compound: Cc1ccc(-c2cc(C(F)(F)F)nn2-c2ccc(S(N)(=O)=O)cc2)cc1
Response: 6.7 ± 0.4 10–^3 μg/cm^2/s

---

- protocol_notes: pKa measurement (SiriusT3, UV-metric/pH-metric titration)
- Format: physicochemical
- run_parameters: acidic pKa; ionic strength 0.168 mol/L, 37°C; read-out: pKa (A)
value_kind: pKa
Would you mind answering with just the numeric figure?

Query: Please report pKa for the following molecule: CCc1c(Cl)c(O)c(Cl)c(O)c1C(=O)O[C@H]1[C@H](O)[C@H](OC)[C@H](OC/C2=C\C=C\C[C@H](O)/C(C)=C/[C@H](CC)[C@@H](O[C@@H]3OC(C)(C)[C@@H](OC(=O)C(C)C)[C@H](O)[C@@H]3O)/C(C)=C/C(C)=C/C[C@@H]([C@@H](C)O)OC2=O)O[C@@H]1C [Fidaxomicin]
Response: 5.15

Query: Please report pKa for the following molecule: COc1ccccc1Oc1c(NS(=O)(=O)c2ccc(C(C)(C)C)cc2)nc(-c2ncccn2)nc1OCCO [Bosentan]
Response: 4.87
